# Target Or System: D(1A) dopamine receptor (Rattus norvegicus) (UniProt P18901)
# Sequence (P18901 whole entry): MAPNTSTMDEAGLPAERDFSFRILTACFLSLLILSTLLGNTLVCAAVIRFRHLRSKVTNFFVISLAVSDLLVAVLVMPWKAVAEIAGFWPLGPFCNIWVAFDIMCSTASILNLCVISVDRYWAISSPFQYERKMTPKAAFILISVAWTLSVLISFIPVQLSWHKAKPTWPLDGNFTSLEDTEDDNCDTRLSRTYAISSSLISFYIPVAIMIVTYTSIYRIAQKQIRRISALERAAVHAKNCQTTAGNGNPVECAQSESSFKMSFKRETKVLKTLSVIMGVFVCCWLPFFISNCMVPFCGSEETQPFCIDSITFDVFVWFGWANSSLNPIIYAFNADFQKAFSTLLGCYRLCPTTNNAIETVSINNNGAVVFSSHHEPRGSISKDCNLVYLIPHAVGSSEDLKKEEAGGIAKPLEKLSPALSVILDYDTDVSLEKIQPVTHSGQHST
# Protocol Summary: The compound is evaluated for the affinity towards Dopamine receptor D1, using [3H]- SCH 23390 as ligand on rat striatal membranes.
Observation Type: K0.5 (nM)
Numbers only, in nM.

Substance Smiles: Oc1cc2c(cc1O)[C@H]1c3ccccc3CN[C@@H]1CC2
Target Or System: D(1A) dopamine receptor (Rattus norvegicus) (UniProt P18901)
Quantitative Readout: 2.8

Can you give me K0.5 for all of these, one by one?
1. CN1Cc2ccccc2[C@@H]2c3cc(O)c(Br)cc3CC[C@H]21
2. Oc1cc2c(cc1O)[C@H]1c3ccccc3CCN[C@@H]1CC2
3. CN1CCc2ccccc2[C@@H]2c3cc(O)c(I)cc3CC[C@H]21
4. CN1CCc2ccccc2[C@@H]2c3cc(O)ccc3CC[C@H]21

[322, 2850, 1380, 3950]
